Taken from PubChem BioAssay AID1996.

testConditions: buffer; pH 7.4; 200.0 µM
Measured solubility kinetic accompanies every entry in the list below.

Worked cases, answers included:
                                   molecule    measuredquantity     testvalue
0  CCOc1ccc(N2C(=O)C3CCCN3C2=S)cc1 (stereo not drawn)  solubility kinetic  > 41.5 µg/mL
1  CCC(C(=O)NC1CC(C)(C)NC(C)(C)C1)c1ccccc1 (stereo not drawn)  solubility kinetic  > 45.4 µg/mL

For the molecule shown here, Cc1ccc(CONC(=O)c2cccc([N+](=O)[O-])c2)cc1 , give the reported solubility kinetic.
> 42.9 µg/mL

* * *

testConditions: buffer; pH 7.4; 200.0 µM
measuredQuantity: solubility kinetic

Below: 5 molecules and their reported solubility kinetic.
                                   molecule    measuredquantity     testvalue
0  CC(Sc1nc2ccc(C(=O)c3ccccc3)cc2[nH]1)C(=O)O (configuration not stated)  solubility kinetic    > 49 µg/mL
1     O=C(OCC(=O)N1CCCC1)c1cc(=O)c2ccccc2o1  solubility kinetic  > 45.2 µg/mL
2  Cn1c(=O)[nH]c(=O)c2c1[nH]c(=S)n2Cc1ccccc1  solubility kinetic  > 43.2 µg/mL
3  Cc1ccc(-n2c(C)cc(C(=O)CN3CCOCC3)c2C)cc1C  solubility kinetic    > 49 µg/mL
4  COC(=O)c1ccc(C)c(NC(=O)CCCN2C(=O)CN(C)C2=O)c1  solubility kinetic  > 52.1 µg/mL

Which value of solubility kinetic has been reported for COc1ccc(Cl)cc1NC(=O)NCc1ccc2c(c1)OCO2 in the records?
< 0.4 µg/mL

Can you look up the measured solubility kinetic of COc1ccc(S(=O)(=O)Nc2cc(C)on2)cc1NC(C)=O for me?
> 48.8 µg/mL
